assay: MTT half-maximal cytotoxic concentration (CC50); conditions: African green monkey
Measure Name: CC50 at 24 h (µM)
One number for each entry, in µM.

Param item = CCN(C)C(=O)Nc1cccc(-c2ccc(N(C)C)cc2)c1 ; retrieve measured CC50 at 24 h.
210

###

tested on: Porcine respiratory reproductive syndrome virus (LMY); conditions: MARC-145 cells, MOI 0.01 ffu/cell; drug added after 18 hours, additional 18 hours
Measure Name: IC50 (µM)
One number for each entry, in µM.

1. COc1nn(-c2ccc(NC(=O)OCc3ccccc3)c(C)c2)c(=O)o1: 4.21

# input for lookup
Provide value of IC50 for this record tested with Porcine respiratory reproductive syndrome virus (LMY): CCN(CC)C(=O)Nc1cccc(-c2ccc(N(C)C)cc2)c1
2.29

###

system: Porcine epidemic diarrhea coronavirus (QIAP1401); details: Vero E6 cells, MOI 0.01 ffu/cell; drug added after 18 hours, additional 18 hours
Measure Name: IC50

1) COc1nn(-c2ccc(NC(=O)OCc3ccccc3)c(C)c2)c(=O)o1: 3.19 µM

# input for lookup
Param item = CCN(CC)C(=O)Nc1cccc(-c2ccc(N(C)C)cc2)c1 ; retrieve measured IC50.
1.62 µM

###

tested on: Porcine sapovirus (Cowden); details: Porcine sapovirus (Cowden)
Measure Name: SI (CC50/IC50)

For every item below, please supply its SI (CC50/IC50).
1. CCN(CC)C(=O)Nc1cccc(-c2ccc(N(C)C)cc2)c1
2. COc1nn(-c2ccc(NC(=O)OCc3ccccc3)c(C)c2)c(=O)o1
3. CCN(C)C(=O)Nc1cccc(-c2ccc(N(C)C)cc2)c1
4. CN(C)C(=O)Nc1cccc(-c2ccc(N(C)C)cc2)c1

1. 81
2. 8
3. 62
4. 72

###

tested on: MARC cells
Measure Name: CC50 (µM)
Give bare numbers, in µM.

Param item = COc1nn(-c2ccc(NC(=O)OCc3ccccc3)c(C)c2)c(=O)o1 ; retrieve measured CC50.
101

###

Can you tell me CC50 at 24 h for the items I'm about to list?
experiment: MTT half-maximal cytotoxic concentration (CC50); conditions: rhesus monkey
Answers are plain numbers, in µM.

1) CCN(C)C(=O)Nc1cccc(-c2ccc(N(C)C)cc2)c1 [DABPU-EM]: 223

# input for lookup
Param item = CN(C)C(=O)Nc1cccc(-c2ccc(N(C)C)cc2)c1 [Atglistatin] ; retrieve measured CC50 at 24 h.
214

###

system: Vero E6 cells; assay: MTT half-maximal cytotoxic concentration (CC50); conditions: Vero E6; drugs for 24 hours, MTT
Measure Name: CC50
Give me the value, and tack the unit on after it.

Provide value of CC50 for this record tested with Vero E6 cells: CCN(CC)C(=O)Nc1cccc(-c2ccc(N(C)C)cc2)c1
222 µM

###

test system: LLC-PK cells; experiment: MTT half-maximal cytotoxic concentration (CC50); conditions: LLC-PK; drugs for 24 hours, MTT
Measure Name: CC50 (µM)
Give bare numbers, in µM.

Param item = CCN(CC)C(=O)Nc1cccc(-c2ccc(N(C)C)cc2)c1 ; retrieve measured CC50.
226

###

assay: MTT half-maximal cytotoxic concentration (CC50); conditions: dog
Measure Name: CC50 at 24 h (µM)
Give bare numbers, in µM.

Param item = CN(C)C(=O)Nc1cccc(-c2ccc(N(C)C)cc2)c1 [Atglistatin] ; retrieve measured CC50 at 24 h.
269

###

system: MA104 cells; assay: MTT half-maximal cytotoxic concentration (CC50); conditions: MA104; drugs for 24 hours, MTT
Measure Name: CC50 (µM)
One number for each entry, in µM.

Param item = CCN(CC)C(=O)Nc1cccc(-c2ccc(N(C)C)cc2)c1 ; retrieve measured CC50.
209

###

Can you tell me pIC50 for the items I'm about to list?
system: Porcine sapovirus (Cowden); details: LLC-PK cells, MOI 0.01 ffu/cell; drug added after 18 hours, additional 18 hours
Answers are plain numbers, as −log10 of the molar value.

1. COc1nn(-c2ccc(NC(=O)OCc3ccccc3)c(C)c2)c(=O)o1: 4.93

# input for lookup
Param item = CCN(CC)C(=O)Nc1cccc(-c2ccc(N(C)C)cc2)c1 ; retrieve measured pIC50.
5.56

###

tested on: MARC cells; test: MTT half-maximal cytotoxic concentration (CC50); details: MARC; drugs for 24 hours, MTT
Measure Name: CC50 (µM)
One number for each entry, in µM.

Provide value of CC50 for this record tested with MARC cells: CCN(CC)C(=O)Nc1cccc(-c2ccc(N(C)C)cc2)c1 [DABPU-DE]
216

###

tested on: Porcine respiratory reproductive syndrome virus (LMY); settings: Porcine respiratory reproductive syndrome virus (LMY)
Can you tell me SI (CC50/IC50) for the items I'm about to list?

Past entries and their recorded results:
1. CCN(C)C(=O)Nc1cccc(-c2ccc(N(C)C)cc2)c1: 78
2. CN(C)C(=O)Nc1cccc(-c2ccc(N(C)C)cc2)c1: 84
3. COc1nn(-c2ccc(NC(=O)OCc3ccccc3)c(C)c2)c(=O)o1: 21

Param item = CCN(CC)C(=O)Nc1cccc(-c2ccc(N(C)C)cc2)c1 ; retrieve measured SI (CC50/IC50).
95

###

test system: HRT18G cells
Measure Name: CC50
Give me the value, and tack the unit on after it.

Param item = COc1nn(-c2ccc(NC(=O)OCc3ccccc3)c(C)c2)c(=O)o1 ; retrieve measured CC50.
104 µM

###

test system: influenza A virus PR8 strain; assay: Influenza A virus-infected mice treated with lipase inhibitor; format: in vivo, C57BL/6J mice; conditions: 5 mg/kg/day; vs untreated virus-inoculated group
Measure Name: number of lipid droplets in bronchiolar epithelial cells

1) CCN(CC)C(=O)Nc1cccc(-c2ccc(N(C)C)cc2)c1: no significant decrease
2) CCN(C)C(=O)Nc1cccc(-c2ccc(N(C)C)cc2)c1: no significant decrease

###

system: A549 cells
Measure Name: CC50 (µM)
Numbers only, in µM.

Provide value of CC50 for this record tested with A549 cells: COc1nn(-c2ccc(NC(=O)OCc3ccccc3)c(C)c2)c(=O)o1
106

###

system: Vero E6 cells
Measure Name: CC50 (µM)
One number for each entry, in µM.

Param item = COc1nn(-c2ccc(NC(=O)OCc3ccccc3)c(C)c2)c(=O)o1 ; retrieve measured CC50.
102

###

test system: SARS-CoV-2 (KCDC03); experiment: Half-maximal viral inhibitory concentration (IC50), immunofluorescence of virus-positive cells; conditions: SARS-CoV-2 (KCDC03)
Measure Name: SI (CC50/IC50)

For every item below, please supply its SI (CC50/IC50).
1. CN(C)C(=O)Nc1cccc(-c2ccc(N(C)C)cc2)c1
2. CCN(C)C(=O)Nc1cccc(-c2ccc(N(C)C)cc2)c1
3. CCN(CC)C(=O)Nc1cccc(-c2ccc(N(C)C)cc2)c1
4. COc1nn(-c2ccc(NC(=O)OCc3ccccc3)c(C)c2)c(=O)o1

1: 154; 2: 122; 3: 185; 4: 62

###

experiment: CC50 range over the cell line panel
Measure Name: CC50 at 24 h

Param item = CN(C)C(=O)Nc1cccc(-c2ccc(N(C)C)cc2)c1 ; retrieve measured CC50 at 24 h.
182 to 269 µM

###

test system: MDCK cells
Measure Name: CC50 (µM)
Give bare numbers, in µM.

Param item = COc1nn(-c2ccc(NC(=O)OCc3ccccc3)c(C)c2)c(=O)o1 [CAY10499] ; retrieve measured CC50.
110

###

Can you tell me SI (CC50/IC50) for the items I'm about to list?
system: Bovine coronavirus (KWD20); details: Bovine coronavirus (KWD20)
Answers are plain numbers.

For every item below, please supply its SI (CC50/IC50).
1. CCN(C)C(=O)Nc1cccc(-c2ccc(N(C)C)cc2)c1
2. COc1nn(-c2ccc(NC(=O)OCc3ccccc3)c(C)c2)c(=O)o1
3. CN(C)C(=O)Nc1cccc(-c2ccc(N(C)C)cc2)c1
4. CCN(CC)C(=O)Nc1cccc(-c2ccc(N(C)C)cc2)c1

54
11
152
158

###

Can you tell me pIC50 for the items I'm about to list?
test system: SARS-CoV-2 (KCDC03); experiment: Half-maximal viral inhibitory concentration (IC50), immunofluorescence of virus-positive cells; settings: Vero E6 cells, MOI 0.01 ffu/cell; drug added after 18 hours, additional 18 hours
Numbers only, as −log10 of the molar value.

Past entries and their recorded results:
1. CCN(C)C(=O)Nc1cccc(-c2ccc(N(C)C)cc2)c1: 5.77
2. CN(C)C(=O)Nc1cccc(-c2ccc(N(C)C)cc2)c1: 5.83
3. COc1nn(-c2ccc(NC(=O)OCc3ccccc3)c(C)c2)c(=O)o1: 5.81

Param item = CCN(CC)C(=O)Nc1cccc(-c2ccc(N(C)C)cc2)c1 ; retrieve measured pIC50.
5.92

###

tested on: HRT18G cells; assay: MTT half-maximal cytotoxic concentration (CC50); conditions: drugs for 24 hours
Measure Name: CC50 (µM)
Numbers only, in µM.

Param item = CCN(CC)C(=O)Nc1cccc(-c2ccc(N(C)C)cc2)c1 ; retrieve measured CC50.
177
